Values were extracted from patent US9328099B2.

study.target: JAK1 (Homo sapiens (Human), UniProt P23458)
Sequence (P23458 875-1153): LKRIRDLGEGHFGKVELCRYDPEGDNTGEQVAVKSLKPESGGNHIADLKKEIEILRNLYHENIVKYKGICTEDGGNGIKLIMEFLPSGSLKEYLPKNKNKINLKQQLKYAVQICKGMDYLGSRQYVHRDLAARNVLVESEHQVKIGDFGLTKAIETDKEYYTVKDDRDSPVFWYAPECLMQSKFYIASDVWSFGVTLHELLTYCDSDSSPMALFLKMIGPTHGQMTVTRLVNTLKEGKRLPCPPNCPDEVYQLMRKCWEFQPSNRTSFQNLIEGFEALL
experiment.summary: Jak Biochemical HTRF Assay, JAK1
conditions: HTRF biochemical assay, GST-tagged catalytic domain; top concentration tested […]; read-out: JAK1 IC50
pIC50: −log10 of the molar value.
// N strictly below 8 in pIC50; Y otherwise

Determine whether this compound has pIC50 no lower than 8: N#CCC1(n2cc(C(N)=O)c(Nc3ccc(F)cc3)n2)CCC(Nc2ccc(Cl)cc2)CC1 (stereo not shown) [Example 40-53]
N

Determine whether this compound has pIC50 no lower than 8: CC(C)(C)OC(=O)N1CCC(CC#N)(n2cc(C(N)=O)c(Nc3ccc(C(C)(C)O)cc3)n2)CC1
Y

Determine whether this compound has pIC50 no lower than 8: N#CCC1(n2cc(C(N)=O)c(Nc3ccnc(F)c3)n2)CCC(NCc2cccc(Cl)c2)CC1 (stereo not shown) [Example 41-20]
Y

====

study.target: JAK1 (Homo sapiens (Human), UniProt P23458)
experiment.summary: Jak Biochemical HTRF Assay, JAK1
conditions: HTRF biochemical assay, GST-tagged catalytic domain; top concentration tested […]; read-out: JAK1 IC50
For each entry below, report its IC50 value.
Value expressed in µM; do not type the unit.

# IC50 (molecule: N#CCC1(n2cc(C(N)=O)c(Nc3ccccc3)n2)CN(C(=O)OCCc2cccc3ccccc23)C1 ) is 0.375

# IC50 (molecule: COc1ccccc1N1CCC(CC#N)(n2cc(C(N)=O)c(Nc3ccc(F)cc3)n2)CC1 ) is 0.213

# IC50 (molecule: N#CCC1(n2cc(C(N)=O)c(Nc3ccccc3)n2)CCN(Cc2cc3ccccc3o2)CC1 ) is 0.01

====

study.target: JAK1 (Homo sapiens (Human))
experiment.summary: Jak Biochemical HTRF Assay, JAK1
conditions: HTRF biochemical assay, GST-tagged catalytic domain; top concentration tested […]; read-out: JAK1 IC50
measurement.name: IC50
The reply should read as a number followed by its unit.

# IC50 (compound: N#CCC1(n2cc(C(N)=O)c(Nc3ccccc3)n2)CCN(Cc2ccc3c(c2)OCO3)CC1 ) is 8 nM

# IC50 (compound: CN(C)CCCOC(=O)N1CC(CC#N)(n2cc(C(N)=O)c(Nc3ccccc3)n2)C1 ) is 200 nM

# IC50 (compound: N#CCC1(n2cc(C(N)=O)c(Nc3ccc(S(=O)(=O)C(F)F)cc3)n2)CCC(N2CC(F)C2)CC1 (centres unmarked) [Example 40-91] ) is 67 nM

# IC50 (compound: N#CCC1(n2cc(C(N)=O)c(Nc3ccnc(F)c3)n2)CCC(N2CCc3ccccc32)CC1 (centres unmarked) [Example 40-30] ) is 326 nM

# IC50 (compound: Cc1cnc(F)c(CN2CCC(CC#N)(n3cc(C(N)=O)c(Nc4ccnc(F)c4)n3)CC2)c1 ) is 0.4 nM

====

study.target: JAK2 (Homo sapiens (Human), UniProt O60674)
Sequence (O60674 849-1124): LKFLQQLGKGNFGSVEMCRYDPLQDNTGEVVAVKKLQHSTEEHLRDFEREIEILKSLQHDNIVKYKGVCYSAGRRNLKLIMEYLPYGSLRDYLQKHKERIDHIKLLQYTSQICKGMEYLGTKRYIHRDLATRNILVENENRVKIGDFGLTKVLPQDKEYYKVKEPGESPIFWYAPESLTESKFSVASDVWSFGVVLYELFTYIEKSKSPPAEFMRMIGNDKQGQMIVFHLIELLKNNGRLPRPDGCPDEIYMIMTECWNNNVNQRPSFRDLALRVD
experiment.summary: Jak Biochemical HTRF Assay, JAK2
conditions: HTRF biochemical assay, GST-tagged catalytic domain; top concentration tested […]
measurement.name: pIC50
Recall that pIC50 is obtained by taking minus log10 of the concentration measured in molar.

# pIC50 (compound: N#CCC1(n2cc(C(N)=O)c(Nc3ccnc(F)c3)n2)CCC(Nc2ccc(F)cc2)CC1 (centres unmarked) [Example 40-40] ) is 8.05

# pIC50 (compound: CC(C)(C)OC(=O)N1CCC(CC#N)(n2cc(C(N)=O)c(Nc3ccc(F)cc3)n2)CC1 ) is 7.68

# pIC50 (compound: CC(=O)c1ccc(Nc2nn(C3(CC#N)CCN(C(=O)OC(C)(C)C)CC3)cc2C(N)=O)cc1 ) is 8.52

# pIC50 (compound: N#CCC1(n2cc(C(N)=O)c(Nc3ccccc3)n2)CN(S(=O)(=O)c2ccccc2)C1 ) is 6.33

# pIC50 (compound: N#CCC1(n2cc(C(N)=O)c(Nc3ccc(F)cc3)n2)CCN(c2cc(C(F)(F)F)ccn2)CC1 ) is 7.12

# pIC50 (compound: N#CCC1(n2cc(C(N)=O)c(Nc3ccnc(F)c3)n2)CCC(NCc2ccc(F)cc2)CC1 (centres unmarked) [Example 41-12] ) is 8.05

# pIC50 (compound: N#CCC1(n2cc(C(N)=O)c(Nc3ccc(F)cc3)n2)CCN(c2cccnc2F)CC1 ) is 9.22

# pIC50 (compound: COCC(=O)N1CCC(CC#N)(n2cc(C(N)=O)c(Nc3ccccc3)n2)CC1 ) is 7.03

# pIC50 (compound: CC(C)(C)OC(=O)N1CCC(CC#N)(n2cc(C(N)=O)c(Nc3ccc(CC(=O)O)cc3)n2)CC1 ) is 8.00

# pIC50 (compound: CC(C)(C)OC(=O)N1CCC(CC#N)(n2cc(C(N)=O)c(Nc3ccc(C(=O)N4CCOCC4)c(F)c3)n2)CC1 ) is 9.15

====

study.target: JAK1 (Homo sapiens (Human))
experiment.summary: Jak Biochemical HTRF Assay, JAK1
conditions: HTRF biochemical assay, GST-tagged catalytic domain; top concentration tested […]; read-out: JAK1 IC50
For each entry below, report its IC50 value.
Value expressed in nM; do not type the unit.

# IC50 (compound: N#CCC1(n2cc(C(N)=O)c(Nc3ccnc(F)c3)n2)CCC(Nc2ccc(F)cc2F)CC1 (stereo not drawn) [Example 40-37] ) is 16

# IC50 (compound: N#CCC1(n2cc(C(N)=O)c(Nc3ccc(F)cc3)n2)CCC(NCC2CC2)CC1 (stereo not drawn) ) is 9

# IC50 (compound: N#CCC1(n2cc(C(N)=O)c(Nc3ccnc(F)c3)n2)CCC(NCc2ccccc2F)CC1 (stereo not drawn) [Example 41-11] ) is 0.08

# IC50 (compound: N#CCC1(n2cc(C(N)=O)c(Nc3ccnc(F)c3)n2)CCN(Cc2ccc(F)cn2)CC1 ) is 2

# IC50 (compound: CC(C)(C)OC(=O)N1CCC(CC#N)(n2cc(C(N)=O)c(Nc3cccc(-c4ccc(O)cc4)c3)n2)CC1 ) is 14

# IC50 (compound: N#CCC1(n2cc(C(N)=O)c(Nc3ccnc(F)c3)n2)CCN(Cc2cn[nH]c2)CC1 ) is 6

====

study.target: JAK1 (Homo sapiens (Human), UniProt P23458)
experiment.summary: Jak Biochemical HTRF Assay, JAK1
conditions: HTRF biochemical assay, GST-tagged catalytic domain; top concentration tested […]; read-out: JAK1 IC50
Excerpt: Jak Biochemical HTRF Assay Protocol Subsequent reagent additions employed an Agilent Bravo.
For each entry below, report its IC50 value.
Value expressed in nM; do not type the unit.

# IC50 (molecule: CNC1CCC(CC#N)(n2cc(C(N)=O)c(Nc3ccc(F)cc3)n2)CC1 (stereo not shown) ) is 12

# IC50 (molecule: N#CCC1(n2cc(C(N)=O)c(Nc3ccccc3)n2)CCN(Cc2ccc(-c3ccccc3)cc2)CC1 ) is 6

# IC50 (molecule: CCCCC(=O)N1CCC(CC#N)(n2cc(C(N)=O)c(Nc3ccccc3)n2)CC1 ) is 12

# IC50 (molecule: Cc1ccc(F)cc1NC(=O)N1CC(CC#N)(n2cc(C(N)=O)c(Nc3ccccc3)n2)C1 ) is 13

# IC50 (molecule: N#CCC1(n2cc(C(N)=O)c(Nc3ccc(F)cc3)n2)CCC(NCCF)CC1 (stereo not shown) ) is 8

# IC50 (molecule: N#CCC1(n2cc(C(N)=O)c(Nc3ccc(F)cc3)n2)CCC(N2CCC(O)CC2)CC1 (stereo not shown) [Example 40-27] ) is 8

# IC50 (molecule: COc1ccc(NC(=O)N2CC(CC#N)(n3cc(C(N)=O)c(Nc4ccccc4)n3)C2)c(C)c1 ) is 15
